system: MCF7; test: Cytotoxicity against human ER positive MCF7 cells after 72 hrs by MTS assay; type: functional, cell-based; settings: MCF7, 72 h
Recorded IC50 values for a group of molecules are listed next.
TEST READOUT: IC50 (µM)

>  <MOLECULE>
NCCCCCOc1ccc(Cl)cc1C(=O)Nc1ccc([N+](=O)[O-])cc1Cl

>  <TEST TARGET>
MCF7

>  <TEST READOUT>
IC50

>  <INEQUALITY SYMBOL>
=

>  <MEASURED RESULT>
3.49

$$$$
>  <MOLECULE>
O=C(Nc1ccc([N+](=O)[O-])cc1Cl)c1cc(Cl)ccc1OC1CCNCC1

>  <TEST TARGET>
MCF7

>  <TEST READOUT>
IC50

>  <INEQUALITY SYMBOL>
=

>  <MEASURED RESULT>
0.25

$$$$
>  <MOLECULE>
O=C(Nc1ccc([N+](=O)[O-])cc1Cl)c1cc(Cl)ccc1OCCN1CCNCC1

>  <TEST TARGET>
MCF7

>  <TEST READOUT>
IC50

>  <INEQUALITY SYMBOL>
=

>  <MEASURED RESULT>
12.4

$$$$
>  <MOLECULE>
CN1CCN(CCOc2ccc(Cl)cc2C(=O)Nc2ccc([N+](=O)[O-])cc2Cl)CC1

>  <TEST TARGET>
MCF7

>  <TEST READOUT>
IC50

>  <INEQUALITY SYMBOL>
>

>  <MEASURED RESULT>
10

$$$$
>  <MOLECULE>
CN(C)CCOc1ccc(Cl)cc1C(=O)Nc1ccc([N+](=O)[O-])cc1Cl

>  <TEST TARGET>
MCF7

>  <TEST READOUT>
IC50

>  <INEQUALITY SYMBOL>
>

>  <MEASURED RESULT>
10

$$$$
>  <MOLECULE>
NCCOCCOc1ccc(Cl)cc1C(=O)Nc1ccc([N+](=O)[O-])cc1Cl

>  <TEST TARGET>
MCF7

>  <TEST READOUT>
IC50

>  <INEQUALITY SYMBOL>
=

>  <MEASURED RESULT>
9.37

$$$$
>  <MOLECULE>
O=C(Nc1ccc([N+](=O)[O-])cc1Cl)c1cc(Cl)ccc1OCCN1CCOCC1

>  <TEST TARGET>
MCF7

>  <TEST READOUT>
IC50

>  <INEQUALITY SYMBOL>
=

>  <MEASURED RESULT>
9.87

$$$$
>  <MOLECULE>
O=C(Nc1ccc([N+](=O)[O-])cc1Cl)c1cc(Cl)ccc1O [NICLOSAMIDE]

>  <TEST TARGET>
MCF7

>  <TEST READOUT>
IC50

>  <INEQUALITY SYMBOL>
=

>  <MEASURED RESULT>
1.06

$$$$
>  <MOLECULE>
CC(=O)Nc1ccc(NC(=O)c2cc(Cl)ccc2OC2CCNCC2)c(Cl)c1

>  <TEST TARGET>
MCF7

>  <TEST READOUT>
IC50

>  <INEQUALITY SYMBOL>
>

>  <MEASURED RESULT>
10

$$$$
>  <MOLECULE>
CN1CCC(Oc2ccc(Cl)cc2C(=O)Nc2ccc([N+](=O)[O-])cc2Cl)CC1

>  <TEST TARGET>
MCF7

>  <TEST READOUT>
IC50

>  <INEQUALITY SYMBOL>
=

>  <MEASURED RESULT>
4.11

$$$$
>  <MOLECULE>
NCCCCOc1ccc(Cl)cc1C(=O)Nc1ccc([N+](=O)[O-])cc1Cl

>  <TEST TARGET>
MCF7

>  <TEST READOUT>
IC50

>  <INEQUALITY SYMBOL>
=

>  <MEASURED RESULT>
3.7

$$$$
>  <MOLECULE>
O=C(Nc1ccc([N+](=O)[O-])cc1Cl)c1cc(Cl)ccc1OCCN1CCCCC1

>  <TEST TARGET>
MCF7

>  <TEST READOUT>
IC50

>  <INEQUALITY SYMBOL>
>

>  <MEASURED RESULT>
10

$$$$
>  <MOLECULE>
O=C(Nc1ccc([N+](=O)[O-])cc1Cl)c1cc(Cl)ccc1OCCF

>  <TEST TARGET>
MCF7

>  <TEST READOUT>
IC50

>  <INEQUALITY SYMBOL>
>

>  <MEASURED RESULT>
10

$$$$
>  <MOLECULE>
NCCOc1ccc(Cl)cc1C(=O)Nc1ccc([N+](=O)[O-])cc1Cl

>  <TEST TARGET>
MCF7

>  <TEST READOUT>
IC50

>  <INEQUALITY SYMBOL>
=

>  <MEASURED RESULT>
0.91

$$$$
>  <MOLECULE>
NCCCOc1ccc(Cl)cc1C(=O)Nc1ccc([N+](=O)[O-])cc1Cl

>  <TEST TARGET>
MCF7

>  <TEST READOUT>
IC50

>  <INEQUALITY SYMBOL>
=

>  <MEASURED RESULT>
3.11

$$$$
>  <MOLECULE>
CS(=O)(=O)Nc1ccc(NC(=O)c2cc(Cl)ccc2OC2CCNCC2)c(Cl)c1

>  <TEST TARGET>
MCF7

>  <TEST READOUT>
IC50

>  <INEQUALITY SYMBOL>
>

>  <MEASURED RESULT>
10

$$$$
